The values you see were collected from PubChem BioAssay (NCI).

Tested on: SK-MEL-28 melanoma
assay.protocol: NCI-60 one-dose screen, 48 h
reported.conditions: 10 µM unless noted
Procedure: Growth inhibition of the SK-MEL-28 human tumor cell line is measured as a screen for anti-cancer activity. Cells are grown in 96 well plates and exposed to the test compound for 48 hours. Compounds are tested at a single concentration, which is 10^-5 M for most compounds. The reported endpoint is percent growth (GI% or GIPRCNT), where numbers from 0 - 100% represent growth inhibition, and numbers from -100% - 0 represent cell death. For example, a value of 40 represents 60% growth inhibition. […]
This is part of a sample that, as a whole, favours compounds with a hit. Of some 83,000 tested, about 20% had one in any assay. Active and inactive are the calls of the source. How the source made its calls: active means growth percent below 10; inactive means the rest.
Your answer must be one of the following: active, inactive

Input line: Hello, I am checking results. What call was entered for "Nc1ccc2c(c1)C(=O)C(=O)c1c-2nc2ccccn12" ?
Output line: active

Input line: Hello, I am checking results. What call was entered for "O=C1CS/C(=N/c2nnc(-c3ccc(O)cc3)s2)N1" ?
Output line: inactive

Input line: Hello, I am checking results. What call was entered for "O=C1C(=O)c2c(nc3ccc(Br)cn23)-c2ccccc21" ?
Output line: active

Input line: Hello, I am checking results. What call was entered for "COc1ccc2nc(-c3ccc(OC)c(OC)c3)cc(-c3nnc(SCC(=O)Nc4ccc(C(C)=O)cc4)o3)c2c1" ?
Output line: inactive

Input line: Hello, I am checking results. What call was entered for "COc1ccc(-c2nnc(N3CCN(C(=O)CN4CCN(c5ccccc5)CC4)CC3)nc2-c2ccc(OC)cc2)cc1" ?
Output line: inactive

Input line: Hello, I am checking results. What call was entered for "C=C(C)[C@@H]1CC[C@]2(C(=O)OCCCC[P+](c3ccccc3)(c3ccccc3)c3ccccc3)CC[C@]3(C)[C@H](CC[C@@H]4[C@@]5(C)CC[C@H](OC(=O)C(Cl)Cl)C(C)(C)[C@@H]5CC[C@]43C)[C@@H]12" ?
Output line: active

Input line: Hello, I am checking results. What call was entered for "CCOCCc1c(O)nc(SC)[nH]c1=O" ?
Output line: inactive

Input line: Hello, I am checking results. What call was entered for "C#C[C@@]1(O)[C@@H](CO)O[C@@H](n2ccc3c(N)ncnc32)[C@@H]1O" ?
Output line: inactive

Input line: Hello, I am checking results. What call was entered for "CC1(C)CC[C@]2(c3nnc(-c4ccncc4)o3)CC[C@]3(C)C(=CC[C@@H]4[C@@]5(C)CCC(=O)C(C)(C)[C@@H]5CC[C@]43C)[C@@H]2C1" ?
Output line: inactive

Input line: Hello, I am checking results. What call was entered for Cc1ccc(C2CC(c3ccc(Nc4nc(NCCO)nc(NCCO)n4)cc3)=NN2c2ccc(Cl)cc2)cc1 (stereo not drawn) ?
Output line: inactive

Input line: Hello, I am checking results. What call was entered for "COc1ccc(/C=C(/C(=O)N2CCN(Cc3ccccc3)CC2)c2cc(OC)c(OC)c(OC)c2)cc1O" ?
Output line: inactive

Input line: Hello, I am checking results. What call was entered for "COc1ccc(NC(=O)c2sc3nc(C)c(C(C)=O)cc3c2N)cc1" ?
Output line: inactive

Input line: Hello, I am checking results. What call was entered for "Cc1cc(O)cc(O)c1N=NC1=NCCS1" ?
Output line: inactive

Input line: Hello, I am checking results. What call was entered for "CCN(CC)CC#CCOC(=O)[C@]1(C)CCC[C@]2(C)[C@H]3C[C@H]4C(C(C)C)=C[C@]3(CC[C@H]21)[C@@H]1C(=O)CCC(=O)[C@@H]14" ?
Output line: inactive

Input line: Hello, I am checking results. What call was entered for N#CC1(C#N)C2=C(CCCC2)NC(c2c(F)cccc2Cl)C1(C#N)C#N (stereo not drawn) ?
Output line: inactive

Input line: Hello, I am checking results. What call was entered for CCCCCCCCCCCCCC1=NCC[N+]1(CCO)Cc1ccccc1 (stereo not drawn) ?
Output line: active

Input line: Hello, I am checking results. What call was entered for COc1ccc(-c2cc(C(=O)N3N=C(c4ccc(N)cc4)CC3c3ccc(OC)cc3)c3cc(OC)ccc3n2)cc1 (stereo not drawn) ?
Output line: inactive

Input line: Hello, I am checking results. What call was entered for "Cc1nc(C)c(C)nc1C" ?
Output line: inactive
